The measurements presented in this section are drawn from PubChem BioAssay (NCI).

# Lookup of reported growth keyed by entry
System: MDA-MB-435 melanoma
Assay: NCI-60 one-dose screen, 48 h (100 = growth as untreated, 0 = no growth, -100 = all killed)
Settings: 10 µM unless noted
Protocol: Growth inhibition of the MDA-MB-435 human Melanoma tumor cell line is measured as a screen for anti-cancer activity. Cells are grown in 96 well plates and exposed to the test compound for 48 hours. Compounds are tested at a single concentration, which is 10^-5 M for most compounds. The reported endpoint is percent growth (GI% or GIPRCNT), where numbers from 0 - 100% represent growth inhibition, and numbers from -100% - 0 represent cell death. […]
About 83,000 compounds went through this panel and 20% of them were active in at least one assay; those are over-represented in the sample as a whole.
State just the number; it will be interpreted in %.

# MOLECULE, growth, %
measured = [
    ("CC[C@H](C)[C@H](NC(=O)C12CC(NC(C)=O)(C1)C2)C(=O)N(C)[C@H](C[C@@H](OC(C)=O)c1nc(C(=O)N[C@@H](Cc2ccccc2)C[C@H](C)C(=O)OC)cs1)C(C)C", -59),
    ("C/C=C(\\C)C(=O)O[C@@H]1C(O)[C@H]2OC(COC(=O)CCC(=O)CCCCCC[C@H](CCCCC)O[C@@H]3OC(C)[C@H](OC(C)=O)C(O)[C@H]3O2)[C@H]1OC(=O)/C=C/c1ccccc1 (stereo partly drawn)", 0.295),
]

Next, consider the following molecule.
In: Query (molecule): CCOC(=S)S[C@H]1C[C@@H]2[C@H](CC[C@]3(C)C(=O)CC[C@@H]23)[C@@]2(C)CCC(=O)C=C12 ; field requested: growth
Out: 101
